// reported IC50 for each item listed
Experimental Target: oncoprotein E7 from Human Papilloma Virus type 16 as GST fusion protein (E7-GST), phosphorylated by CK2 enzyme (Human papillomavirus type 16, UniProt P03129)
Sequence (P03129 whole entry, looked up, the tested form may be a part): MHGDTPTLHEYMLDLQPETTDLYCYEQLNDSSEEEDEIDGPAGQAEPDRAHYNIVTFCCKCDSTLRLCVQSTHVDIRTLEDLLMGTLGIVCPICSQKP
Condition Info: read-out: Inhibitory concentration 50 (IC50)
Where a SMILES comes first, the peptide text is derived from it.
Only the number, expressed in nM, is required.

Asked: Reported IC50 for NCCC(=O)NCC(=O)NCC(=O)O [C31420] (HELM PEPTIDE1{[bAla].G.G}$$$$V2.0) : what is it?
Given back: 25

Asked: How about this compound: C/C(Cc1c[nH]c2ccccc12)=N\NC(N)=S
Given back: 32

Asked: Further, for C/C=C/CC/C(=N\NC(N)=O)c1ccccc1 ?
Given back: 29

Asked: Query NNC(=O)CNc1cccc(I)c1 next
Given back: 24

Asked: Consider next the compound CSc1nc(N)nc2c1ncn2C1CC(CO)C(O)C1O (stereo not drawn) in the same way.
Given back: 33

Asked: Also check N#CCNC(=O)NCCCl
Given back: 27
